Source: ChEMBL document CHEMBL5154816

Biological target: Bromodomain-containing protein 2 (Homo sapiens, UniProt P25440)
Sequence (P25440 whole entry): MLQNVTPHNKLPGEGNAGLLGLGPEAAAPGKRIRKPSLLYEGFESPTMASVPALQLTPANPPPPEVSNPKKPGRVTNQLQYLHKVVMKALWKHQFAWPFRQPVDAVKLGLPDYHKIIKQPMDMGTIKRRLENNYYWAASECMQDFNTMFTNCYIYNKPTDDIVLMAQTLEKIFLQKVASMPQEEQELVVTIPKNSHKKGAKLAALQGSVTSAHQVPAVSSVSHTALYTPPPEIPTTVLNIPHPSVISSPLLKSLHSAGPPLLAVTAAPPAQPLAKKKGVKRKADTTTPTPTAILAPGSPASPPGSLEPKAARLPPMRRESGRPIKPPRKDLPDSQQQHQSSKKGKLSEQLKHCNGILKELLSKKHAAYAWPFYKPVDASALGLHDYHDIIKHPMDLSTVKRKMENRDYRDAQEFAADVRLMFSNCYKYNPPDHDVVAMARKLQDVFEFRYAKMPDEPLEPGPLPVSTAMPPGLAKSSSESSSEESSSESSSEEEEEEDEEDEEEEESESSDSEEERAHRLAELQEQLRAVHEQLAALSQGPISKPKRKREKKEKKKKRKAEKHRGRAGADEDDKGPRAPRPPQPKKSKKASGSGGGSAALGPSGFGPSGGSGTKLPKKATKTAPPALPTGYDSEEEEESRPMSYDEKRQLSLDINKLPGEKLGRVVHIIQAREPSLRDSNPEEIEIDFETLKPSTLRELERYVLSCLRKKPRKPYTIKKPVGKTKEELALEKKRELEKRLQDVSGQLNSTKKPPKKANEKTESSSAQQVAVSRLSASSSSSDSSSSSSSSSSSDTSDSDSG
Assay: Inhibition of C-terminal His6-tagged BRD2 BD2 (unknown origin) using H-YSGRGK(Ac)GGK(Ac)GLGK(Ac)-GGAK(Ac)RHRK-Biotin-OH as substrate incubated for 1 hrs by HTRF assay
MEASURED PROPERTY: IC50 (nM)
One number for each entry, in nM.

cpd_smiles=Cc1cc(F)cc(C)c1Oc1ccc(C(C)(C)O)cc1-c1cn(C)c(=O)c2cc(-c3cnc(C4CCCCC4)[nH]3)oc12 measured_property=IC50 unit=nM value_reported=11.1

// below: IC50 requested for another molecule
Query: Report IC50 for Cc1cc(F)cc(C)c1Oc1ccc(C(C)(C)O)cc1-c1cn(C)c(=O)c2cc(-c3cnc(C4CCCC4)[nH]3)oc12 please.
Reply: 5.09
